- tgt: PTPN2 (Homo sapiens)
- Construct: full length human PTPN2 (TC45 variant), 6xHis-tagged
- experimental details: RP-UFLC phosphatase assay with FAM-pStat1 peptide; time- and concentration-dependent inactivation kinetics (ki […] ^-1 min^-1)
- Type: biochemical
experimental endpoint: pIC50
// scale note: pIC50 = -log10(conc_M); give the bare number

Record summary for C=CS(=O)(=O)Oc1ccccc1 [PVSN, phenyl vinyl sulfonate] : reported pIC50 = 3.74

----------
- tgt: PTPN2 (Homo sapiens, UniProt P17706)
- Construct: full length human PTPN2 (TC45 variant), 6xHis-tagged
- Sequence (P17706 1-381 limits assumed): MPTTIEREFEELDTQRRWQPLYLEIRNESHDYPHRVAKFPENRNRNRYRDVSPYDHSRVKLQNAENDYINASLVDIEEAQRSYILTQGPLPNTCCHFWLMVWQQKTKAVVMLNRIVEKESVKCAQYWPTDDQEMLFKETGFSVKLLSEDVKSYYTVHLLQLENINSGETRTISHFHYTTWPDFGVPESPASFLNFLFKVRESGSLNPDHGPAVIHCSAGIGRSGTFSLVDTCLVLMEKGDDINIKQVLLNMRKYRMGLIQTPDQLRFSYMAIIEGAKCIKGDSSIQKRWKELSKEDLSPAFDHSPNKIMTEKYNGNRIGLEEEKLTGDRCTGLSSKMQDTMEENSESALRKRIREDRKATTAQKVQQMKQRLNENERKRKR
- experimental details: RP-UFLC phosphatase assay with FAM-pStat1 peptide
- Type: biochemical
experimental endpoint: IC50

Record summary for [O]=[V]([OH])([OH])[OH] [orthovanadate] : reported IC50 = ~1000 nM
